testSystem: Luciferin 4-monooxygenase (Photinus pyralis) (UniProt P08659)
Sequence (P08659 whole entry, looked up): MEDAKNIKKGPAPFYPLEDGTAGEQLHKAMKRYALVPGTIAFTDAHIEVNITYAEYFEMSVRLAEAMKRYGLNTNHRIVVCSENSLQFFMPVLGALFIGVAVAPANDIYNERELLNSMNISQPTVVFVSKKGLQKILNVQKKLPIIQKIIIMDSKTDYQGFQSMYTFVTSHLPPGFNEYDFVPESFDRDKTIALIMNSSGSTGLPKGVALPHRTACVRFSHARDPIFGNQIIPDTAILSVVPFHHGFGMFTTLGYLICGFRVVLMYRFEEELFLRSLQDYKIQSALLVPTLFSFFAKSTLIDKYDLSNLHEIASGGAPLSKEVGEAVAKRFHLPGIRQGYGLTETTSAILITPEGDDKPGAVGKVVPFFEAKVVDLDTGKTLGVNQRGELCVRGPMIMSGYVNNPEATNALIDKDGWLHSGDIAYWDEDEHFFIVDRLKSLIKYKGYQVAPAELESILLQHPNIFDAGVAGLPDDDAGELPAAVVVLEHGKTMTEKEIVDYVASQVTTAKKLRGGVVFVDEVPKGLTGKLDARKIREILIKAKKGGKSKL
runDescription: CCTE_Simmons_QuantiLum_inhib_2: CCTE's Firefly Luciferase Inhibition Assay, Simmons Lab (AID 2283767)
Inconclusive results are not listed. Activity calls are given as the source filed them. Rule for the calls: active = hit-call score of the fitted dose curve at least 0.9, where 1 is the maximum; inconclusive = response in the unintended direction; inactive = score below 0.9.
Pick from active, inactive when you respond.

Take a look at these entries with their results.
molecule	label
C/C=C/c1ccc(OC)cc1	inactive
Oc1ccccc1O	inactive
CC(C)NCC(O)c1ccc(O)c(O)c1 (stereo unspecified)	inactive
O=C1O[C@H]([C@H](O)CO)C(O)=C1O	inactive
Cc1cc(Cc2ccc(N)c(C)c2)ccc1N	inactive
Oc1ccc(O)cc1	inactive

Recorded test outcome, item Cc1cc(SC2=C(O)C[C@@](CCc3ccc(N)cc3)(C(C)C)OC2=O)c(C(C)(C)C)cc1CO
inactive

Write down the call the test reported for this molecule. Item: Cc1c(C)c2c(c(C)c1O)CCC(C)(COc1ccc(CC3SC(=O)NC3=O)cc1)O2 (stereo unspecified)
inactive

Write down the call the test reported for this molecule. Item: S=c1[nH]c2ccccc2s1
inactive

For this molecule, state the assay outcome: Nc1nc(=S)c2[nH]cnc2[nH]1
active

Field: outcome | Entry: C/C=C/C=C/C(=O)O
inactive

----------
testSystem: human Serotonin, 5-Hydroxytryptamine Receptor 7 (5HT7), HTR7 (gene 3363)
runDescription: NVS_GPCR_h5HT7: NovaScreen (NVS) G Protein-Coupled Receptor Assay for human Serotonin, 5-Hydroxytryptamine Receptor 7 (5HT7) (AID 2283255);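 note: hits reduce specific radioligand binding relative to DMSO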
Description: NVS_GPCR_h5HT7 is a biochemical, single-readout assay that uses extracted gene-proteins from CHO in a cell-free assay. Measurements were taken 1 hour after chemical dosing in a 96-well plate.NVS_GPCR_h5HT7 is one of one assay component(s) measured or calculated from the NVS_GPCR_h5HT7 assay. […] This assay endpoint, NVS_GPCR_h5HT7, was analyzed in the positive analysis fitting direction relative to DMSO as the negative control and baseline of activity. […]
Results filed as inconclusive are left out. Activity calls are given as the source filed them. The calls were made as follows: active = hit-call score of the fitted dose curve at least 0.9, where 1 is the maximum; inconclusive = response in the unintended direction; inactive = score below 0.9.
Reply using exactly one outcome from 1 for active, -1 for inactive

Please review the following examples before continuing.
smiles	testSystem	label
CCN(CC)CCOc1ccc(C(=C(Cl)c2ccccc2)c2ccccc2)cc1	human Serotonin, 5-Hydroxytryptamine Receptor 7 (5HT7), HTR7 (gene 3363)	1
CCCCCCCCCCCCCCOS(=O)(=O)O	human Serotonin, 5-Hydroxytryptamine Receptor 7 (5HT7), HTR7 (gene 3363)	1
O=C(N[C@@H](c1ccccc1)[C@@H]1CCCCN1)c1cccc(C(F)(F)F)c1Cl	human Serotonin, 5-Hydroxytryptamine Receptor 7 (5HT7), HTR7 (gene 3363)	1
NC(=Nc1ccccc1)Nc1ccccc1	human Serotonin, 5-Hydroxytryptamine Receptor 7 (5HT7), HTR7 (gene 3363)	1

// return assay outcome for CN(C)C(=O)NC1(c2ccccc2)CCN(CCC[C@]2(c3ccc(Cl)c(Cl)c3)CCCN(C(=O)c3ccccc3)C2)CC1
-1

----------
Read-out: Interleukin-1 alpha (IL1a), IL1A (gene 3552)
runDescription: BSK_BE3C_IL1a: BioMAP Diversity Plus: BE3C Assay for Interleukin-1 alpha (IL1a) Biomarker Activity (AID 2283016)
setupConditions: primary human bronchial epithelial cells; actives raise or lower the signal
Active and inactive are the calls of the source. How the source made its calls: active means hit-call score of the fitted dose curve at least 0.9, where 1 is the maximum; inactive means score below 0.9.
In this exercise, the only acceptable responses are t (active), f (inactive)

smiles	label
Cc1ccc(-c2cc(C(F)(F)F)nn2-c2ccc(S(N)(=O)=O)cc2)cc1	t
Cc1cc(SC2=C(O)C[C@@](CCc3ccc(N)cc3)(C(C)C)OC2=O)c(C(C)(C)C)cc1CO	f
CS(=O)(=O)c1ccc([C@@H](C[C@H]2CCC(=O)C2)C(=O)Nc2cnccn2)cc1Cl	f
CCCCCCCC(=O)OC	f
O=C1c2c(O)cccc2Cc2cccc(O)c21	f

Fill in: this test's call for O=C(O)c1cccnc1 is ___
f

What was the test verdict on O=Cc1ccccc1C=O ?
f

----------
Read-out: growth arrest and DNA damage 45 (GADD45G), GADD45G (gene 10912)
runDescription: LTEA_HepaRG_GADD45G: Life Technologies and Expression Analysis (LTEA) Assay for growth arrest and DNA damage 45 (GADD45G) using HepaRG (AID 2283499)
setupConditions: mRNA level, 48 h; actives raise or lower the signal
The source made the active and inactive calls. The calls were made as follows: active = hit-call score of the fitted dose curve at least 0.9, where 1 is the maximum; inactive = score below 0.9.
Pick one: active, inactive

compound	label
Cc1occc(=O)c1O	inactive
CC(N)=O	inactive
S=c1[nH]c2ccccc2s1	inactive
CCCCCCCCCCCCCCCCO	inactive
Oc1ccccc1O	inactive
O=C(O)CC(O)(CC(=O)O)C(=O)O	inactive
NC(=Nc1ccccc1)Nc1ccccc1	inactive
CC(C)c1cccc(C(C)C)c1	inactive

So what was the verdict on CC(C)(O)c1ccc(CNC(=O)c2cccnc2Oc2ccc(F)cc2)cc1 in this test?
inactive

Per the records of this test, what outcome belongs to N[C@@H](Cc1c[nH]c2ccccc12)C(=O)O ?
inactive

Record lookup: outcome of this test for O=C(O)c1[nH]n(-c2ccc(S(=O)(=O)O)cc2)c(=O)c1N=Nc1ccc(S(=O)(=O)O)cc1 ?
inactive

----------
testSystem: Estrogen receptor (Homo sapiens) (UniProt P03372)
Sequence (P03372 whole entry, looked up): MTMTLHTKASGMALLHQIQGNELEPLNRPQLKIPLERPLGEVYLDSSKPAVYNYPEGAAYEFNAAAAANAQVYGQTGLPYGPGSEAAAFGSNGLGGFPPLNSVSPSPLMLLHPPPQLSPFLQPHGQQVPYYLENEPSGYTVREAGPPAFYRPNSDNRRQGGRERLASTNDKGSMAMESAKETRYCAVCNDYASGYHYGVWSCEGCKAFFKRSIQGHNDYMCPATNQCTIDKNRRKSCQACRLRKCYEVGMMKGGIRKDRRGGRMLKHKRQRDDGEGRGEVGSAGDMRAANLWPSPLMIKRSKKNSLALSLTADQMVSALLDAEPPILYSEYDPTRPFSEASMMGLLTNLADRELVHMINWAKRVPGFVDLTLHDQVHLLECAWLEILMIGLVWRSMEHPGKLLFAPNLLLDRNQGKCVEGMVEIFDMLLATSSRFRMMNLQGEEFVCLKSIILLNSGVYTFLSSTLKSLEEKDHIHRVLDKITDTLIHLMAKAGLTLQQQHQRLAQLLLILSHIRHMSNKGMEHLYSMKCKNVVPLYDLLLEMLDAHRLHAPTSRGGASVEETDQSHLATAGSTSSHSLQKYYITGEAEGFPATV
runDescription: CCTE_Deisenroth_AIME_384WELL_LUC_Inactive: CCTE's 384-well Estrogen Receptor Transactivation Assay without AIME metabolic competence (ERTA luciferase; metabolism negative), Deisenroth Lab (AID 2284038);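 note: VM7Luc4E2 breast cells given medium preincubated 2 h with S9-free microspheres; hits raise estrogen receptor luciferase signal so potencies reflect agonists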
Inconclusive results are not listed. The source made the active and inactive calls. How the source made its calls: active means hit-call score of the fitted dose curve at least 0.9, where 1 is the maximum; inconclusive means response in the unintended direction; inactive means score below 0.9.
A correct response names exactly one class from active, inactive

What outcome does the record of this test show for NC1CCCCC1 ?
inactive

Each compound tested received a call. Report the one for c1ccc2occc2c1 .
inactive

Which result was noted for this compound in the test: CC(C)c1cccc(C(C)C)c1
inactive

Record lookup: outcome of this test for CCCCCCCCCCCCCCCCO ?
inactive

Recorded test outcome, item CCCCCCC(CCCCCCCCCCC(=O)OCC(COC(C)=O)OC(C)=O)OC(C)=O (stereo unspecified)
inactive

Which outcome did this test record for the compound CSc1ccc(Oc2ccc(S(N)(=O)=O)cc2CN(C)C)cc1C ?
inactive

Can you look up the reported call for O=C(O)CN(CC(=O)O)CC(=O)O for me?
active

Each compound tested received a call. Report the one for O=C(O)c1[nH]n(-c2ccc(S(=O)(=O)O)cc2)c(=O)c1N=Nc1ccc(S(=O)(=O)O)cc1 .
inactive

// param item: O=C(O)CC(O)(CC(=O)O)C(=O)O ; yields the recorded call
inactive

Please share the test call associated with CC1(C)C(=O)NC(=O)N1CO .
inactive

# lookup: test call for O=[Si]=O
inactive

----------
runDescription: BSK_CASM3C_SRB: Viability Assessment in the BioMAP Diversity Plus: CASM3C Assay (AID 2283050);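 note: total protein by SRB staining as cytotoxicity measure in parallel cultures; cells exposed to compound for 24 h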
setupConditions: primary human coronary artery smooth muscle cells
Active and inactive are the calls of the source. Rule for the calls: active = hit-call score of the fitted dose curve at least 0.9, where 1 is the maximum; inactive = score below 0.9.
Give one outcome, nothing more. List: active, inactive

compound	label
O=[Si]=O	inactive
C=CCCCCCCCCCCCC	inactive
O=C1NC(=O)C(c2ccccc2)(c2ccccc2)N1	inactive
CC(C)(C)c1ccccc1	inactive
Nc1nc(Cl)nc2c1ncn2[C@H]1C[C@H](O)[C@@H](CO)O1	inactive

From here, focus on the item given below.
Please let me know the test result on file for C#CC(O)C(CC)CCCC (centres undefined) .
inactive

----------
Read-out: matrix metalloproteinase-3 (MMP3), MMP3 (gene 4314)
runDescription: LTEA_HepaRG_MMP3: Life Technologies and Expression Analysis (LTEA) Assay for matrix metalloproteinase-3 (MMP3) using HepaRG (AID 2283519)
setupConditions: mRNA level, 48 h; actives raise or lower the signal
Active and inactive are the calls of the source. Rule for the calls: active = hit-call score of the fitted dose curve at least 0.9, where 1 is the maximum; inactive = score below 0.9.
Hello, when you answer, please use one of the following outcomes: 1 (yes) = active, 0 (no) = inactive

compound	label
C#CC(O)C(CC)CCCC (centres undefined)	0 (no)
CC(=O)[C@@]1(O)CC[C@H]2[C@@H]3CCC4=CC(=O)CC[C@]4(C)[C@H]3CC[C@@]21C	0 (no)
O=C(O)CN(CC(=O)O)CC(=O)O	0 (no)
CCOCCOCCO	0 (no)
COC(=O)CCCC(=O)OC	0 (no)

Check the results log: what was the call for CC(C)(O)c1ccc(CNC(=O)c2cccnc2Oc2ccc(F)cc2)cc1 ?
1 (yes)

Please share the test call associated with O=C1NC(=O)C(c2ccccc2)(c2ccccc2)N1 .
0 (no)

Which outcome was entered for the compound CCCCOC(=O)CCCCC(=O)OCCCC in this test?
0 (no)

// outcome(item) with item = CCCCCCCCCCCCCCCCO
0 (no)

Recorded call for CC(C)c1cccc(C(C)C)c1 ?
0 (no)

What was the test verdict on Cc1cc(SC2=C(O)C[C@@](CCc3ccc(N)cc3)(C(C)C)OC2=O)c(C(C)(C)C)cc1CO ?
0 (no)

----------
testSystem: Estrogen receptor (Homo sapiens) (UniProt P03372)
runDescription: OT_ERa_GFPERaERE_0480: Odyssey Thera (OT) 8-hour HeLa Transcription Induction Assay for Estrogen Receptor (AID 2283381)
Procedure: OT_ERa_GFPERaERE_0480 is a cell-based, single-readout assay that uses HeLa, a human cervix cell line, with measurements taken at 8 hours after chemical dosing in a 384-well plate.OT_ERa_GFPERaERE_0480 is one of one assay component(s) measured or calculated from the OT_ERa_GFPERaERE_0480 assay. […] This assay endpoint, OT_ERa_EREGFP_0480, was analyzed in the positive analysis fitting direction relative to DMSO as the negative control and baseline of activity. […]
Active and inactive are the calls of the source. The calls were made as follows: active = hit-call score of the fitted dose curve at least 0.9, where 1 is the maximum; inactive = score below 0.9.
The reply should be one of these categories: y (active), n (inactive)

molecule	label
CCCCCCCCCCCCCCOS(=O)(=O)O	y

Per the assay record, what outcome was assigned to CCCCCCC(CCCCCCCCCCC(=O)OCC(COC(C)=O)OC(C)=O)OC(C)=O (stereo not drawn) ?
n

Test call for this molecule, please: CCCCCCCCCC[N+](C)(C)[O-]
n

Answer briefly: the call reported for CN(C)C(=O)NC1(c2ccccc2)CCN(CCC[C@]2(c3ccc(Cl)c(Cl)c3)CCCN(C(=O)c3ccccc3)C2)CC1 in this assay.
n

Tell me the recorded outcome of this test for O=C(O)CC(O)(CC(=O)O)C(=O)O .
n

State the result this test recorded for CS(=O)(=O)c1ccc([C@@H](C[C@H]2CCC(=O)C2)C(=O)Nc2cnccn2)cc1Cl .
n
